FYI, the data here is from patent US20120021988A1.

# OD 405 nm per entry
EXPERIMENTAL_SYSTEM: PAP complex: preformed immune complex of peroxidase and rabbit anti-peroxidase IgG (horseradish) (UniProt P00433)
ASSAY_COMMENT: reverse ELISA competition: PAP pre-incubated with peptide, then on C1q-coated plate; signal is PAP left bound to immobilised human C1q (lower = more inhibition)
Just the number please, in OD 405 nm, no unit attached.

APPDCAWHLGELVWCT [Peptide … (SEQ ID NO:20)]	0.389
DCAFHLGELVWCT [Peptide … (SEQ ID NO:3)]	0.859

Record APPCAFHLGELVWCT [Peptide … (SEQ ID NO:18)] . Reported OD 405 nm: 0.983

// recorded OD 405 nm for APPCARHLGELVWCT [Peptide … (SEQ ID NO:16)] : 0.567

The binder APPCAWHLGELVWCT [Peptide … (SEQ ID NO:14)] showed OD 405 nm equal to 1.15
